experiment: Hemolytic activity in human RBC at 96 uM after 1 hr relative to control; type: ADME, cell-based, Erythrocyte; conditions: red blood cells (RBC, erythrocytes), read-out: Activity
assay_endpoint: hemolysis at 1 h, 96 µM (%)
Form entry: value (%) — number only.

Enquiry: Please report the recorded hemolysis at 1 h, 96 µM for CC[C@H](C)[C@H](NC(=O)[C@H](CC(C)C)NC(=O)[C@H](CCCCN)NC(=O)[C@@H](NC(=O)[C@@H](NC(=O)[C@H](CCCNC(=N)N)NC(=O)[C@@H](N)CCCCN)[C@@H](C)CC)C(C)C)C(=O)N[C@@H](CC(C)C)C(=O)N[C@@H](CCCCN)C(=O)N[C@@H](Cc1c[nH]c2ccccc12)C(=O)N[C@@H](CC(C)C)C(=O)N[C@@H](CCCNC(=N)N)C(N)=O .
Return: 50

---

tested on: Escherichia coli; experiment: Antibacterial activity against Escherichia coli KCTC 1682 in presence of 20% human serum after 24 hrs; assay type: functional; conditions: KCTC 1682, 24 h
assay_endpoint: MIC (µM)
Form entry: value (µM) — number only.

# example entries with known answers
CC[C@H](C)[C@H](NC(=O)[C@H](CCCNC(=N)N)NC(=O)[C@@H](N)CCCCN)C(=O)N[C@H](C(=O)N[C@@H](CCCCN)C(=O)N[C@H](CC(C)C)C(=O)N[C@H](C(=O)N[C@@H](CC(C)C)C(=O)N[C@@H](CCCCN)C(=O)N[C@@H](Cc1c[nH]c2ccccc12)C(=O)N[C@@H](CC(C)C)C(=O)N[C@@H](CCCNC(=N)N)C(N)=O)[C@@H](C)CC)C(C)C : 8
CC[C@H](C)[C@H](NC(=O)[C@H](CCCNC(=N)N)NC(=O)[C@@H](N)CCCCN)C(=O)N[C@H](C(=O)N[C@@H](CCCCN)C(=O)N[C@@H](CC(C)C)C(=O)N[C@H](CC(C)C)C(=O)N[C@@H](CC(C)C)C(=O)N[C@@H](CCCCN)C(=O)N[C@@H](Cc1c[nH]c2ccccc12)C(=O)N[C@@H](CC(C)C)C(=O)N[C@@H](CCCNC(=N)N)C(N)=O)C(C)C : 4

Now let's try a different one.
Enquiry: Please report the recorded MIC for CC[C@H](C)[C@H](NC(=O)[C@H](CC(C)C)NC(=O)[C@@H](CCCCN)NC(=O)[C@@H](NC(=O)[C@@H](NC(=O)[C@H](CCCNC(=N)N)NC(=O)[C@@H](N)CCCCN)[C@@H](C)CC)C(C)C)C(=O)N[C@@H](CC(C)C)C(=O)N[C@@H](CCCCN)C(=O)N[C@@H](Cc1c[nH]c2ccccc12)C(=O)N[C@@H](CC(C)C)C(=O)N[C@@H](CCCNC(=N)N)C(N)=O .
Return: 4

---

test system: Pseudomonas aeruginosa; experiment: Antibacterial activity against multidrug-resistant Pseudomonas aeruginosa CCARM 2109 after 24 hrs; format: functional; settings: CCARM 2109, 24 h
assay_endpoint: MIC (µM)
Form entry: value (µM) — number only.

# example entries with known answers
CC[C@H](C)[C@H](NC(=O)[C@H](CC(C)C)NC(=O)[C@@H](CCCCN)NC(=O)[C@@H](NC(=O)[C@@H](NC(=O)[C@H](CCCNC(=N)N)NC(=O)[C@@H](N)CCCCN)[C@@H](C)CC)C(C)C)C(=O)N[C@@H](CC(C)C)C(=O)N[C@@H](CCCCN)C(=O)N[C@@H](Cc1c[nH]c2ccccc12)C(=O)N[C@@H](CC(C)C)C(=O)N[C@@H](CCCNC(=N)N)C(N)=O : 4
CC[C@H](C)[C@H](NC(=O)[C@H](CCCNC(=N)N)NC(=O)[C@@H](N)CCCCN)C(=O)N[C@H](C(=O)N[C@@H](CCCCN)C(=O)N[C@@H](CC(C)C)C(=O)N[C@H](CC(C)C)C(=O)N[C@@H](CC(C)C)C(=O)N[C@@H](CCCCN)C(=O)N[C@@H](Cc1c[nH]c2ccccc12)C(=O)N[C@@H](CC(C)C)C(=O)N[C@@H](CCCNC(=N)N)C(N)=O)C(C)C : 4

Enquiry: Please report the recorded MIC for CC[C@H](C)[C@H](NC(=O)[C@H](CCCNC(=N)N)NC(=O)[C@@H](N)CCCCN)C(=O)N[C@H](C(=O)N[C@@H](CCCCN)C(=O)N[C@H](CC(C)C)C(=O)N[C@H](C(=O)N[C@@H](CC(C)C)C(=O)N[C@@H](CCCCN)C(=O)N[C@@H](Cc1c[nH]c2ccccc12)C(=O)N[C@@H](CC(C)C)C(=O)N[C@@H](CCCNC(=N)N)C(N)=O)[C@@H](C)CC)C(C)C .
Return: 4

Enquiry: Please report the recorded MIC for CC[C@H](C)[C@H](NC(=O)[C@H](CC(C)C)NC(=O)[C@H](CCCCN)NC(=O)[C@@H](NC(=O)[C@@H](NC(=O)[C@H](CCCNC(=N)N)NC(=O)[C@@H](N)CCCCN)[C@@H](C)CC)C(C)C)C(=O)N[C@@H](CC(C)C)C(=O)N[C@@H](CCCCN)C(=O)N[C@@H](Cc1c[nH]c2ccccc12)C(=O)N[C@@H](CC(C)C)C(=O)N[C@@H](CCCNC(=N)N)C(N)=O .
Return: 8

---

test system: Pseudomonas aeruginosa; assay: Antibiofilm activity against multidrug-resistant Pseudomonas aeruginosa CCARM 2095 after 24 hrs by crystal violet staining based assay; type: functional
assay_endpoint: MBIC90 (µM)
Form entry: value (µM) — number only.

# example entries with known answers
CC[C@H](C)[C@H](NC(=O)[C@H](CC(C)C)NC(=O)[C@H](CCCCN)NC(=O)[C@@H](NC(=O)[C@@H](NC(=O)[C@H](CCCNC(=N)N)NC(=O)[C@@H](N)CCCCN)[C@@H](C)CC)C(C)C)C(=O)N[C@@H](CC(C)C)C(=O)N[C@@H](CCCCN)C(=O)N[C@@H](Cc1c[nH]c2ccccc12)C(=O)N[C@@H](CC(C)C)C(=O)N[C@@H](CCCNC(=N)N)C(N)=O : 16
CC[C@H](C)[C@H](NC(=O)[C@H](CCCNC(=N)N)NC(=O)[C@@H](N)CCCCN)C(=O)N[C@H](C(=O)N[C@@H](CCCCN)C(=O)N[C@H](CC(C)C)C(=O)N[C@H](C(=O)N[C@@H](CC(C)C)C(=O)N[C@@H](CCCCN)C(=O)N[C@@H](Cc1c[nH]c2ccccc12)C(=O)N[C@@H](CC(C)C)C(=O)N[C@@H](CCCNC(=N)N)C(N)=O)[C@@H](C)CC)C(C)C : 16
CC[C@H](C)[C@H](NC(=O)[C@H](CCCNC(=N)N)NC(=O)[C@@H](N)CCCCN)C(=O)N[C@H](C(=O)N[C@@H](CCCCN)C(=O)N[C@@H](CC(C)C)C(=O)N[C@H](CC(C)C)C(=O)N[C@@H](CC(C)C)C(=O)N[C@@H](CCCCN)C(=O)N[C@@H](Cc1c[nH]c2ccccc12)C(=O)N[C@@H](CC(C)C)C(=O)N[C@@H](CCCNC(=N)N)C(N)=O)C(C)C : 8

Enquiry: Please report the recorded MBIC90 for CC[C@H](C)[C@H](NC(=O)[C@H](CC(C)C)NC(=O)[C@@H](CCCCN)NC(=O)[C@@H](NC(=O)[C@@H](NC(=O)[C@H](CCCNC(=N)N)NC(=O)[C@@H](N)CCCCN)[C@@H](C)CC)C(C)C)C(=O)N[C@@H](CC(C)C)C(=O)N[C@@H](CCCCN)C(=O)N[C@@H](Cc1c[nH]c2ccccc12)C(=O)N[C@@H](CC(C)C)C(=O)N[C@@H](CCCNC(=N)N)C(N)=O .
Return: 8

---

tested on: Staphylococcus aureus; test: Antibacterial activity against Staphylococcus aureus KCTC 1621 assessed as cell membrane disruption at 2 times MIC within 4 mins by Sytox Green dye based fluorescence spectrophotometer assay; format: functional, organism-based
Active and inactive are the calls of the source. The rule behind the calls is not given here.
assay_endpoint: Activity

CC[C@H](C)[C@H](NC(=O)[C@H](CC(C)C)NC(=O)[C@H](CCCCN)NC(=O)[C@@H](NC(=O)[C@@H](NC(=O)[C@H](CCCNC(=N)N)NC(=O)[C@@H](N)CCCCN)[C@@H](C)CC)C(C)C)C(=O)N[C@@H](CC(C)C)C(=O)N[C@@H](CCCCN)C(=O)N[C@@H](Cc1c[nH]c2ccccc12)C(=O)N[C@@H](CC(C)C)C(=O)N[C@@H](CCCNC(=N)N)C(N)=O : Active
CC[C@H](C)[C@H](NC(=O)[C@H](CCCNC(=N)N)NC(=O)[C@@H](N)CCCCN)C(=O)N[C@H](C(=O)N[C@@H](CCCCN)C(=O)N[C@H](CC(C)C)C(=O)N[C@H](C(=O)N[C@@H](CC(C)C)C(=O)N[C@@H](CCCCN)C(=O)N[C@@H](Cc1c[nH]c2ccccc12)C(=O)N[C@@H](CC(C)C)C(=O)N[C@@H](CCCNC(=N)N)C(N)=O)[C@@H](C)CC)C(C)C : Active
CC[C@H](C)[C@H](NC(=O)[C@H](CC(C)C)NC(=O)[C@@H](CCCCN)NC(=O)[C@@H](NC(=O)[C@@H](NC(=O)[C@H](CCCNC(=N)N)NC(=O)[C@@H](N)CCCCN)[C@@H](C)CC)C(C)C)C(=O)N[C@@H](CC(C)C)C(=O)N[C@@H](CCCCN)C(=O)N[C@@H](Cc1c[nH]c2ccccc12)C(=O)N[C@@H](CC(C)C)C(=O)N[C@@H](CCCNC(=N)N)C(N)=O : Active
CC[C@H](C)[C@H](NC(=O)[C@H](CCCNC(=N)N)NC(=O)[C@@H](N)CCCCN)C(=O)N[C@H](C(=O)N[C@@H](CCCCN)C(=O)N[C@@H](CC(C)C)C(=O)N[C@H](CC(C)C)C(=O)N[C@@H](CC(C)C)C(=O)N[C@@H](CCCCN)C(=O)N[C@@H](Cc1c[nH]c2ccccc12)C(=O)N[C@@H](CC(C)C)C(=O)N[C@@H](CCCNC(=N)N)C(N)=O)C(C)C : Active
